- system: UniProt O43614
- methodNotes: Human OX2R IP1 assay
- runConditions: T-Rex CHO cells stably overexpressing human OX2R; IP1 (inositol monophosphate) accumulation, HTRF; 1 hr at 37 degrees C
property: EC50

These solved cases illustrate the format of a correct answer.
Input CC(C)OC(=O)N1CC[C@H](NS(=O)(=O)N(C)C)[C@H](CO[C@H]2CC[C@@H](c3cccc(F)c3)CC2)C1 [Compound 50] . Output EC50: 100 to 1000 nM

The measured EC50 associated with CC(C)S(=O)(=O)N[C@H]1CCN(c2cccnn2)C[C@H]1CO[C@H]1CC[C@@H](c2cccc(F)c2)CC1 [Compound 21] reads < 100 nM

EC50 in this record for CN(C)S(=O)(=O)N[C@H]1CCN(C(=O)[C@H]2C[C@@H](F)C2)C[C@H]1CO[C@H]1CC[C@@H](c2cccc(F)c2)CC1 [Compound 53] : < 100 nM

Looking up O=S(=O)(N[C@H]1CCN(c2cccnn2)C[C@H]1CO[C@H]1CC[C@@H](c2cccc(F)c2)CC1)C1CC1 [Compound 10] , I found its EC50 recorded as < 100 nM

For reference, reported EC50 for O=S(=O)(N[C@H]1CCN(c2cccnn2)C[C@H]1CO[C@H]1CC[C@@H](c2cccc(F)c2)CC1)N1CC2(COC2)C1 [Compound 34] stands at > 1000 nM

Here is the next item to consider.
Lab note: O=S(=O)(N[C@H]1CCN(c2cccnn2)C[C@H]1CO[C@H]1CC[C@@H](c2cccc(F)c2)CC1)C(F)F [Compound 11] gave EC50 of < 100 nM

====

Please provide measured pEC50 for the entries that follow.
- system: human orexin-2 receptor (OX2R) (Homo sapiens)
- Sequence (O43614 whole entry): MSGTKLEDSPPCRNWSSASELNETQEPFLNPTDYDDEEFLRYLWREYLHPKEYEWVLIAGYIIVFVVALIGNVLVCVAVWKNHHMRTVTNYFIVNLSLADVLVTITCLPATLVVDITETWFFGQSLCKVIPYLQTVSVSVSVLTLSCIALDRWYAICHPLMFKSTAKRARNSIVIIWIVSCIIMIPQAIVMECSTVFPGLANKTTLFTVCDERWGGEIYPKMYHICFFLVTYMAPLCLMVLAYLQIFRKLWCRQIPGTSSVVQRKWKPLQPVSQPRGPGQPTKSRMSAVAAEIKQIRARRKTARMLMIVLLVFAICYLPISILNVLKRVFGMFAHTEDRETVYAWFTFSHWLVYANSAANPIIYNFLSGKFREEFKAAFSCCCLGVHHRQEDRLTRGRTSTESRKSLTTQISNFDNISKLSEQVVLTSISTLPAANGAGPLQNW
- methodNotes: Human OX2R IP1 assay
- runConditions: T-Rex CHO cells stably overexpressing human OX2R; IP1 (inositol monophosphate) accumulation, HTRF; 1 hr at 37 degrees C
pEC50: −log10 of the molar value.

Recorded result, `O=S(=O)(N[C@H]1CCN(c2cccnn2)C[C@H]1CO[C@H]1CC[C@@H](c2cccc(F)c2)CC1)N1CCOCC1` , pEC50: < 6.00

The measured pEC50 associated with `CN(C)S(=O)(=O)N[C@H]1CCN(C(=O)c2ccnn2C)C[C@H]1CO[C@H]1CC[C@@H](c2cccc(F)c2)CC1` reads < 6.00

Item: `CN(C)S(=O)(=O)N[C@H]1CCN(C(=O)C2(F)CCC2)C[C@H]1CO[C@H]1CC[C@@H](c2cccc(F)c2)CC1` | pEC50: > 7.00

Measured pEC50 of `O=S(=O)(N[C@H]1CCN(c2cccnn2)C[C@H]1CO[C@H]1CC[C@@H](c2cccc(F)c2)CC1)N1CC(Cl)C1` : < 6.00

GET /value?item= `O=S(=O)(N[C@H]1CCN(c2cccnn2)C[C@H]1CO[C@H]1CC[C@@H](c2cccc(F)c2)CC1)N1CCC(F)(F)C1` &field=pEC50 returns < 6.00

Hey, can you go through the list below and give me pEC50 for every item?
1. CCN(CC)S(=O)(=O)N[C@H]1CCN(c2cccnn2)C[C@H]1CO[C@H]1CC[C@@H](c2cccc(F)c2)CC1
2. CN(C)S(=O)(=O)N[C@H]1CCN(c2cccnn2)C[C@H]1CO[C@H]1CC[C@@H](c2cccc(F)c2)CC1

result:
1. < 6.00
2. > 7.00
